# Procedure Summary: Cytotoxicity against human TZM-bl cells after 48 hrs by MTT assay
# Format: cell-based
// NB: equality with 80 µM counts as n; only CC50 at 48 h strictly below is y

These solved cases illustrate the format of a correct answer.
Compound	Assigned Label
Cc1cc(N2C(=O)CSC2c2ccc(C#N)cc2)no1 (stereo unspecified)	n
N#Cc1ccc(C2SCC(=O)N2c2ccc(C#N)cc2)cc1 (stereo unspecified)	y
COc1cc(OC)nc(N2C(=O)CSC2c2c(OC)cccc2OC)n1 (stereo unspecified)	n
Cc1ccnc(N2C(=O)CSC2c2ccc(C#N)cc2)n1 (stereo unspecified)	n
O=C1CSC(c2c(Cl)cccc2Cl)N1Nc1ccccn1 (stereo unspecified)	n
Cc1ccc(S(=O)(=O)NN2C(=O)CSC2c2c(Cl)cccc2Cl)cc1 (stereo unspecified)	y
Cc1cccc(C)c1C1SCC(=O)N1NC(=O)c1ccncc1 (stereo unspecified)	y
Cc1cc(N2C(=O)CSC2c2ccc(C#N)cc2)nc(C)c1Br (stereo unspecified)	y

[in] # strict comparison: is reported CC50 at 48 h < 80 µM? input = N#Cc1ccc(NN2C(=O)CSC2c2c(F)cccc2Cl)cc1 (stereo unspecified)
[out] y

[in] Does the reported CC50 at 48 h of the following compound sit strictly below 80 µM? COc1cccc(OC)c1C1SCC(=O)N1c1cc(C)on1 (stereo unspecified)
[out] n
